Just for reference, patent US20150239831A1 is where these values come from.

- assayed_system: VIPR2 (Homo sapiens, UniProt P41587)
- Sequence (P41587 24-438): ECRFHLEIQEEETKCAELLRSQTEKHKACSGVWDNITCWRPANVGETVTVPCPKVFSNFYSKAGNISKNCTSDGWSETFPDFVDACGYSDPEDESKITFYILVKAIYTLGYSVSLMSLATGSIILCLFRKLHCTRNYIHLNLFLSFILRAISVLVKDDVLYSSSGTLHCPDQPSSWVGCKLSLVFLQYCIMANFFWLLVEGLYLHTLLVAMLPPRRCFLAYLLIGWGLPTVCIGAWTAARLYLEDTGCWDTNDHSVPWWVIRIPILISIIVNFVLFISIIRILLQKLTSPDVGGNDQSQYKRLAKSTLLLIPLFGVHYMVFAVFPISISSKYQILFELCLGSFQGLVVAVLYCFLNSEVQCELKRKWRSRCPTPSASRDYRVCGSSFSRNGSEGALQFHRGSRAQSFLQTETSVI
- assay_method_text: Inhibition of VIP-induced cAMP elevation (% Activity cAMP)
- Type: cell-based
- Parameters: expressed in transfected cells; host or cells: HEK293 cells transfected with VIPR2 in pCDNA3.1 (as described)
- condition_details: 0.5 μM, Batch 2
quantity_name: inhibition at 0.5 µM (%)

As a guide, the following entries are already answered.
>>> value_observed("O=C([C@H](Cc1ccccc1)C[C@H](O)CNS(=O)(=O)c1ccc([N+](=O)[O-])cc1)N1CCC(CO)CC1")
2.1
>>> value_observed("CCCCNC(=O)[C@@H](Cc1ccccc1)C[C@H](O)CNS(=O)(=O)c1ccc([N+](=O)[O-])cc1")
-1.5
>>> value_observed("O=C(NN1CCCCC1)[C@H](Cc1ccccc1)C[C@H](O)CNS(=O)(=O)c1ccc([N+](=O)[O-])cc1")
6.3
>>> value_observed("O=C([C@H](Cc1ccccc1)C[C@H](O)CNS(=O)(=O)c1ccc([N+](=O)[O-])cc1)N1CCCCC1 [Compound B18A]")
-4.8
>>> value_observed("O=C(NC1CCCCCC1)[C@H](Cc1ccccc1)C[C@H](O)CNS(=O)(=O)c1ccc([N+](=O)[O-])cc1")
1.7
>>> value_observed("CCCCNC(=O)[C@H](Cc1ccccc1)C[C@H](O)CNS(=O)(=O)c1ccc([N+](=O)[O-])cc1")
0.9
>>> value_observed("O=C([C@H](Cc1ccccc1)C[C@H](O)CNS(=O)(=O)c1ccc([N+](=O)[O-])cc1)N1CCOCC1")
-3.8
>>> value_observed("CC1CCC(NC(=O)[C@@H](Cc2ccccc2)C[C@H](O)CNS(=O)(=O)c2ccc([N+](=O)[O-])cc2)CC1 (some centres unmarked)")
-0.7

1: CCNC(=O)[C@@H](Cc1ccccc1)C[C@H](O)CNS(=O)(=O)c1ccc([N+](=O)[O-])cc1 [Compound B16B]
2: CNC(=O)[C@H](Cc1ccccc1)C[C@H](O)CNS(=O)(=O)c1ccc([N+](=O)[O-])cc1
(Q) Hey, between 1 and 2 which has a smaller measured inhibition at 0.5 µM? Refer to your chosen item by its label in the answer.
(A) 1
(1: -13.2%, 2: 7%)

###

- assayed_system: VIPR2 (Homo sapiens)
- assay_method_text: Inhibition of VIP-induced β-arrestin recruitment (% Activity Arrestin)
- Type: cell-based
- Parameters: expressed in transfected cells; host or cells: HEK293 cells transfected with VIPR2 in pCDNA3.1 (as described)
- condition_details: 5 μM, Batch 1
quantity_name: inhibition at 5 µM (%)

>>> value_observed("O=C(Cc1cccc(Cl)c1)NC[C@@H](O)C[C@@H](Cc1ccccc1)C(=O)N[C@H]1c2ccccc2C[C@H]1O")
17.2

P: O=C(CCCCl)NC[C@@H](O)C[C@@H](Cc1ccccc1)C(=O)N[C@H]1c2ccccc2C[C@H]1O
Q: N#Cc1ccc(S(=O)(=O)NC[C@@H](O)C[C@@H](Cc2ccccc2)C(=O)N[C@H]2c3ccccc3C[C@H]2O)cc1
R: O=C(NC[C@@H](O)C[C@@H](Cc1ccccc1)C(=O)N[C@H]1c2ccccc2C[C@H]1O)c1ccccn1
(Q) List by increasing inhibition at 5 µM. Returns: the labels arranged in the requested order.
(A) R, P, Q
